Reported relative cell viability is given for each of the following molecules.
Tested on: HL-1
procedure_text: relative cell viability (CellTiter-Glo) vs DMSO control (% of DMSO control); higher = more viable cells
experimental_parameters: oxygen condition: hypoxia 48 h (1% O2) + reoxygenation 24 h; 1000 nM

| molecule | relative cell viability |
| --- | --- |
| CCOc1nc2cccc(C(=O)OCc3oc(=O)oc3C)c2n1Cc1ccc(-c2ccccc2-c2noc(=O)[nH]2)cc1 | 116 |
| CCCC1O[C@@H]2C[C@H]3[C@@H]4CCC5=CC(=O)C=C[C@]5(C)[C@H]4[C@@H](O)C[C@]3(C)[C@]2(C(=O)CO)O1 (stereo not given in full) [Budesonide] | 91.2 |
| CCC(=O)NCC[C@@H]1CCc2ccc3c(c21)CCO3 | 110 |
| Cc1ccc(C(=O)c2cc(O)c(O)c([N+](=O)[O-])c2)cc1 | 103 |
| Nc1nc2ccc(OC(F)(F)F)cc2s1 | 108 |
